- System: P388 leukemia ip, CD2F1 mice, survival T/C
- assay: NCI In Vivo Anticancer Drug Screen. Data for tumor model P388 Leukemia (intraperitoneal) in CD2F1 (CDF1) mice
- assay setup: endpoint: median survival time; dose: 50.0 mg/kg/injection; schedule: Q01DX009 (ip); vehicle: suspension in saline; higher = longer survival
- Description: The antitumor activity of compounds was measured in mice bearing transplantable tumors. Survival or tumor size were measured and the results are expressed as the measurement made in the treated group (T) divided by the measurement made in the vehicle treated control group (C). The tumor model used in this assay is P388 Leukemia (intraperitoneal) in CD2F1 (CDF1) mice
Toxic doses and inconclusive results are not listed.
Each item that follows carries a reported T/C.

>  <compound>
c1ccc(CN2CC[N+](Cc3ccccc3)=C2C2=[N+](Cc3ccccc3)CCN2Cc2ccccc2)cc1

>  <T/C>
91 % of control

$$$$
>  <compound>
CC(=O)c1c(O)ccc2nc3ccccc3nc12

>  <T/C>
105 % of control

$$$$
>  <compound>
COc1ccc(CSC(=S)Nc2ccc(Cl)c(C(F)(F)F)c2)cc1

>  <T/C>
106 % of control

$$$$
>  <compound>
O=[N+]([O-])c1ccc(/C=C(/c2ccc([N+](=O)[O-])o2)S(=O)(=O)c2ccccc2)cc1

>  <T/C>
97 % of control

$$$$
>  <compound>
Fc1cccc(NC(=S)SCc2ccc(Cl)c(Cl)c2)c1

>  <T/C>
99 % of control

$$$$
>  <compound>
CC1CC=CCC1C1NC(C(=O)O)CS1 (stereo unspecified)

>  <T/C>
106 % of control

$$$$

Reference for the values: PubChem BioAssay AID330
